Recorded BMPRII binding (relative to wild type = 1.0), one value per entry.
Target: T1, BMPRII receptor-Fc fusion (UniProt Q13873 27-151, limits assumed)
T1 construct: BMP receptor-Fc fusion used at 5 ug/mL
T1 sequence (looked up): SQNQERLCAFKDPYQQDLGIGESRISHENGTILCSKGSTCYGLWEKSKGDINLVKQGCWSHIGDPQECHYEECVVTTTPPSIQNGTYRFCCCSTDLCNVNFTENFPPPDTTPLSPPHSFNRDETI
Test: ELISA-like plate assay, captured BMP-7 from conditioned media, receptor-Fc detection

BMPRII binding (relative to wild type = 1.0) recorded for this binder, BMP-7 variant V123G (ligand, In conditioned media; numbering on mature BMP-7) STGGKQRSQNRSKTPKNQEALRMASVAENSSSDQRQACKKHELYVSFRDLGWQDWIIAPEGYAAYYCEGECAFPLNSYMNATNHAIVQTLVHFINPETVPKPCCAPTQLNAISVLYFDDSSNGILKKYRNMVVRACGCH , is 0.22 relative to wild type

From here, focus on the item given below.
BMPRII binding (relative to wild type = 1.0) recorded for this binder, BMP-7 variant E60P (ligand, In conditioned media; numbering on mature BMP-7) STGGKQRSQNRSKTPKNQEALRMASVAENSSSDQRQACKKHELYVSFRDLGWQDWIIAPPGYAAYYCEGECAFPLNSYMNATNHAIVQTLVHFINPETVPKPCCAPTQLNAISVLYFDDSSNVILKKYRNMVVRACGCH , is 1.01 relative to wild type
